Attribution: ChEMBL document CHEMBL1165943

System: LOX IMVI
ASSAY_DETAILS: Cytotoxicity against human LOXIMVI cells assessed as cell growth at 10 uM
Type: functional
CONDITION_PARAMETERS: Homo sapiens, LOX IMVI; read-out: Activity
Measured growth at 10 µM accompanies every entry in the list below.
Respond with the bare value in %.

Please review the following examples before continuing.
- SMILES_CODE: "CC(=O)c1ccccc1-c1ccc(-c2ccnc(NC(=O)Nc3cc(N4CCOCC4)cc(C(F)(F)F)c3)n2)cn1"
  NUMBER: 44.7
- SMILES_CODE: "CC(=O)c1ccc(-c2ccc(-c3ccnc(Nc4cc(C(F)(F)F)cc(C(F)(F)F)c4)n3)cn2)cc1"
  NUMBER: 97.8
- SMILES_CODE: "CC(=O)Nc1cccc(-c2ccc(-c3ccnc(NC(=O)Nc4cc(C(F)(F)F)cc(C(F)(F)F)c4)n3)cn2)c1.Cl"
  NUMBER: 49.4

Shifting focus to the compound that follows.
Input line: Given the entry c1ccc(-c2ccc(-c3ccnc(Nc4ccc(N(c5ccccc5)c5ccccc5)cc4)n3)cn2)cc1 , report its measured growth at 10 µM.
Output line: 131
